molecular target: TRESK (Mus musculus); assay: whole-cell patch clamp, HEK293, voltage ramp, current at +[…] mV
Sequence (Q6VV64 whole entry): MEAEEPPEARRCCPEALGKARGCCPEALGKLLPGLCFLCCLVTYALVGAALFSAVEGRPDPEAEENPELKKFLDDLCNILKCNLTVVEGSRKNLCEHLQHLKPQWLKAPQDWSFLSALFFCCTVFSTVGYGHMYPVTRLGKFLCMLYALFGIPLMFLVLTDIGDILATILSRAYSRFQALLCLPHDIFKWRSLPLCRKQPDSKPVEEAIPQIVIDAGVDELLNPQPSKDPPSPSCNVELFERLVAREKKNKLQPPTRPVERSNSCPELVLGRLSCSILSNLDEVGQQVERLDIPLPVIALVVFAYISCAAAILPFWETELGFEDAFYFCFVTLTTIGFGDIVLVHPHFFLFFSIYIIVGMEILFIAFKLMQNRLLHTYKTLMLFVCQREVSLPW
pIC50: −log10 of the molar value.
Binary call on pIC50: Criterion met from 4 upward, Criterion not met beneath that.

                                   compound              label
0                COc1ccc2cc(CCC(C)=O)ccc2c1  Criterion not met
1  CN(C)CCCC1(c2ccc(F)cc2)OCc2cc(C#N)ccc21 (stereo not shown)  Criterion not met
2            CN(C)CCC=C1c2ccccc2CCc2ccccc21      Criterion met
3  CN(C)CCC[C@@]1(c2ccc(F)cc2)OCc2cc(C#N)ccc21      Criterion met
4  CC(NC(C)(C)C)C(=O)c1cccc(Cl)c1 (stereo not shown)  Criterion not met
5  CC(C)Cc1ccc(C(C)C(=O)O)cc1 (stereo not shown)  Criterion not met
6                        CC(=O)Nc1ccc(O)cc1  Criterion not met
